Task for the reader: assign each of the following molecules its reported melting point.

{"chemical-smiles": "CC(C)(C)CC(=O)c1c(-c2ccc3c(Br)c(OCC(=O)O)ccc3c2)sc2ccccc12", "melting point": "206 to 207 °C"}

Could you tell me melting point for each of these molecules? They are listed below.
1. O=C1C(=O)c2ccc(Cl)cc2C2=C1SCC1(CCN(C(=O)c3cccc(Cl)c3)CC1)O2
2. BrCc1c(Br)csc1Br

1. 125 to 130 °C
2. 89 to 90 °C

###

measure: melting point

Solved entries (count: 6):
{"compound": "O=S(=O)(Cc1ccccc1)c1ncc(Br)cn1", "melting point": "142 to 143 °C"}
{"compound": "CC(C)(Cc1ccc(F)cc1)NC(=O)c1coc(C2C3CCC(O3)C2Cc2ccccc2CCC(=O)O)n1 (stereo unspecified)", "melting point": "68 °C"}
{"compound": "O=C(NC(=O)c1c(F)cccc1F)Nc1cc(C(F)(F)F)cc(C(F)(F)F)n1", "melting point": "152 °C"}
{"compound": "CCOC(=O)c1c(NCC(=O)c2ccccc2Cc2ccccc2)c2c(Cl)cc(Cl)cc2n1C(=O)OC(C)(C)C", "melting point": "163 °C"}
{"compound": "O=c1c2ccccc2sc(-c2ccncc2)[n+]1[O-]", "melting point": "248 to 252 °C"}
{"compound": "Fc1cc(F)c(-c2c(F)nnc(F)c2-c2ccc(Br)cc2)c(F)c1", "melting point": "132 to 133 °C"}

For each listed entry, give its melting point.
1. N#CCCCc1ccccc1CC1C(=O)CCCC1=O
2. COC1=CC(=O)C=CC1=O
3. CCn1c(=O)c2c(nc(/C=C/c3ccc(OC(C)=O)c(OC)c3)n2C)n(CC)c1=O
4. O=C1Cc2cc(F)ccc2Oc2ccccc21

143 °C
141 to 143 °C
194 to 195 °C
63 to 64 °C

Hey, can you go through the list below and give me melting point for every item?
1. O=C(Nc1n[nH]c2nc(Oc3ccc(F)cc3F)ncc12)C1CCCC1
2. CC(C)Cc1ccc2nc(Cl)cn2n1
3. CCC(CC)COc1ccc(S(=O)(=O)C2(C(=O)NO)CCN(Cc3ccccc3)CC2)cc1
4. O=C1CC(N2C=Nc3cccc(Br)c3C2)C(=O)N1 (stereo unspecified)
5. O=C=Nc1ccc(Oc2cccc(Cl)n2)cc1

1: 206 to 208 °C; 2: 71 to 72.5 °C; 3: 114 °C; 4: 214 to 217 °C; 5: 96 to 97 °C

Data point: COc1cc(Oc2ccc(C(=O)N(C(C)C)C3CCCCC3)cc2)cc(OC)c1OC ; melting point = 124 °C

###

Consider the following compounds; for each one, report its melting point.

{"chemical-smiles": "Cc1oc(-c2ccccc2)nc1COc1ccc(Cn2cc(C=O)c(-c3cccs3)n2)cc1", "melting point": "136 to 137 °C"}

# per-item lookup of melting point; items listed below
1. CC(C)(C)OC(=O)N1CC[C@H](O)[C@H]1C(=O)O
2. COc1cc(Oc2cccc(OC(F)(F)F)c2)nc(C(=O)O)c1
3. Cc1ccc(-c2cccn2-c2ccc(S(C)(=O)=O)cc2)cc1

1. 156 to 157 °C
2. 64 to 66 °C
3. 186 to 187 °C

###

measure: melting point

Guide cases for melting point, answers given:
{"molecule": "CC(C)NC[C@H](O)COc1ccc(Cc2nc(Br)c[nH]2)cc1", "measure": "melting point", "result": "125 to 127 °C"}
{"molecule": "COc1ccc2c(c1)c(Cc1nc(-c3ccc([N+](=O)[O-])cc3)cs1)c(C)n2Cc1ccc(Br)cc1", "measure": "melting point", "result": "205 to 207 °C"}
{"molecule": "O=C1N(Cc2ccc(C(F)(F)F)o2)c2cccc(Cl)c2C12COc1cc3c(cc12)CCO3 (stereo not drawn)", "measure": "melting point", "result": "166 to 169 °C"}
{"molecule": "C[C@@H]1CN(C(=O)OC(C)(C)C)C[C@H]2Cc3cc(Br)c(CO)nc3N21", "measure": "melting point", "result": "110 to 112 °C"}

Kindly give each listed record's melting point.
1. COc1ccc(C(=O)N2c3ccccc3C(n3c4ccccc4c4ccccc43)CC2CCCCCN2CCN(c3ccc(F)cc3)CC2)cc1OC (stereo not drawn)
2. Nc1cccc(-c2ccc(CCN3CCN(C(=O)COc4ccccc4)CC3)cc2)n1
3. O=C(Nc1ccccc1)OC(C1CC1)C1CC1
4. Oc1cccc(-c2ccc3nnn(Cc4ccc5ncccc5c4)c3n2)c1

1: 178 to 179 °C; 2: 127 to 130 °C; 3: 92 to 94 °C; 4: 255 to 257 °C

###

Would you kindly list melting point for each of these molecules?

Use these answered entries as a reference point.
{"chemical-smiles": "CCCNC(=O)NS(=O)(=O)N1CCC(CCNC(=O)c2cc(Cl)ccc2OC)CC1", "result": "140 to 142 °C"}
{"chemical-smiles": "CCCCCCCCCCCCc1ccc(S(=O)(=O)Cl)cc1", "result": "33 to 35 °C"}
{"chemical-smiles": "CCCCCc1cc2cc(O)ccc2c(Oc2ccc(/C=C/C(=O)O)cc2)c1-c1ccccc1", "result": "110 to 113 °C"}
{"chemical-smiles": "CSc1nccn1NCc1cc(C(C)(C)C)c(O)c(C(C)(C)C)c1", "result": "110 to 113 °C"}
{"chemical-smiles": "O=C(c1cccs1)c1cccc2nc(N[C@@H]3CCc4ccccc43)ccc12", "result": "176 °C"}

Quick one: give me melting point for each item below, same order please.
1. Cc1nc(-n2cnn(Cc3c(C)noc3C)c2=O)sc1C(=O)NCc1cccnc1
2. CC(=O)CCc1cc(-c2ccncc2)sc1-c1ccncc1

1: 233 to 234 °C; 2: 162 to 163 °C

###

Can you tell me melting point for the items I'm about to list?

{"chemical-smiles": "Cc1cc(N2CCN(Cc3ccc(N)cc3)C2=O)sc1C(=O)NCc1cccnc1", "measure": "melting point", "result": "118 to 120 °C"}
{"chemical-smiles": "COc1ccc(Cc2cc3cccc(-c4cccc(C(=O)NCCN5CCCC5)c4)c3o2)cc1OC", "measure": "melting point", "result": "119 to 120 °C"}
{"chemical-smiles": "COc1ccc2cc([C@H](C)C(=O)OCCOC(=O)C(=O)OCCCO[N+](=O)[O-])ccc2c1", "measure": "melting point", "result": "55 to 58 °C"}
{"chemical-smiles": "CCc1nc2c(N)nc3ccccc3c2n1OC", "measure": "melting point", "result": "216 to 217 °C"}
{"chemical-smiles": "COc1ccccc1-n1c(=O)[nH]c2c(C(N)=O)nc(N[C@@H]3CCNC3)nc21", "measure": "melting point", "result": "> 400 °C"}

Batch: melting point for all items listed.
1. Fc1cccc(COc2ccc(I)cc2)c1
2. COC(=O)c1cc2cc(C)ccc2s1

1. 48 °C
2. 78 to 79 °C
